Test system: 292921-168-R-J2-PDC KRAS tumor spheroid viability;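 note: drug exposure lasted seven days after spheroids formed for three days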
method-description: Anticancer human tumor 292921-168-R-J2-PDC patient-derived pancreatic carcinoma cell line growth inhibition [KRAS2]
experimental-setup: curve of first compound; second compound 0.1 µM; spheroids with HUVEC and MSC
Excerpt: Multicellular complex tumor spheroid response to RAS pathway inhibitors in combination with a targeted agents in patient-derived cell lines with oncogenic KRAS variants from multiple cancer types A high-throughput screen of multi-cell type tumor spheroids was designed to identify active combinations of targeted small molecules and KRAS pathway inhibitors. […] Compounds. […] If the clinical Cmax for an agent had not been determined, the highest concentration tested was 10 microM. […]
pIC50: −log10 of the molar value.
Entries and their measured pIC50 follow.
readout: pIC50

[
  {
    "compound": "CC1(C)CCC(CN2CCN(c3ccc(C(=O)NS(=O)(=O)c4ccc(NCC5CCOCC5)c([N+](=O)[O-])c4)c(Oc4cnc5[nH]ccc5c4)c3)CC2)=C(c2ccc(Cl)cc2)C1 + CC1OCC2(CCN(c3cnc(Sc4ccnc(N)c4Cl)c(N)n3)CC2)C1N",
    "inequality-symbol": "=",
    "reading": 5.79
  },
  {
    "compound": "COc1cc(Nc2ncc3c(n2)-c2ccc(Cl)cc2C(c2c(F)cccc2OC)=NC3)ccc1C(=O)O + CC1OCC2(CCN(c3cnc(Sc4ccnc(N)c4Cl)c(N)n3)CC2)C1N",
    "inequality-symbol": ">",
    "reading": 7.50
  },
  {
    "compound": "COc1cc2nccc(Oc3ccc(NC(=O)C4(C(=O)Nc5ccc(F)cc5)CC4)cc3)c2cc1OC + COc1cc2nc(C)nc(NC(C)c3cc(N)cc(C(F)(F)F)c3)c2cc1OC1CCOC1",
    "inequality-symbol": "=",
    "reading": 5.64
  },
  {
    "compound": "CC(=O)OC12COC1CC(O)C1(C)C(=O)C(O)C3=C(C)C(OC(=O)C(O)C(NC(=O)OC(C)(C)C)c4ccccc4)CC(O)(C(OC(=O)c4ccccc4)C21)C3(C)C (stereo not given) + C=CC(=O)N1CCN(c2nc(=O)n(-c3c(C)ccnc3C(C)C)c3nc(-c4c(O)cccc4F)c(F)cc23)C(C)C1",
    "inequality-symbol": ">",
    "reading": 8.00
  },
  {
    "compound": "Cn1nccc1Nc1nccc(-c2cc3c(s2)C(C)(C)N(CCN2CCOCC2)C3=O)n1 + C=CC(=O)N1CCN(c2nc(OCC3CCCN3C)nc3c2CCN(c2cccc4cccc(C)c24)C3)CC1CC#N",
    "inequality-symbol": "=",
    "reading": 7.11
  }
]
